tgt: Avi-KRAS WT (1-169) GppNHp/RAF1 RBD-3xFLAG (52-151) (Homo sapiens, UniProt P01116)
Construct: Avi-KRAS WT (1-169)
Sequence (P01116 1-169 isoform P01116-2): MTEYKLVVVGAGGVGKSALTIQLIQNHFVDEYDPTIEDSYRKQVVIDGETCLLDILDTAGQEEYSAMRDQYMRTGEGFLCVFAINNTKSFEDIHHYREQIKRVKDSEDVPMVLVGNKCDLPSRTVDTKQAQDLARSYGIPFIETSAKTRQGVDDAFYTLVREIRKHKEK
measurement_description: Raf1-KRAS WT-GppNHP disruption HTRF assay (Biological Example 1)
Type: binding
test_conditions: KRAS WT-GppNHp/RAF1 RBD HTRF
readout_name: IC50

These solved cases illustrate the format of a correct answer.
molecule	IC50
CCN(c1nc(OC[C@@]23CCCN2C[C@H](F)C3)nc2c(F)c(-c3ccc(F)c4sc(N)c(C#N)c34)c(C(F)(F)F)cc12)[C@H]1CC(=O)N(C)C1 [Compound 482]	100 to 1000 nM
CCN(c1nc(OC[C@@]23CCCN2C[C@H](F)C3)nc2c(F)c(-c3ccc(F)c4sc(N)c(C#N)c34)c(C(F)(F)F)cc12)[C@H]1C[C@H](C)N(C(=O)C2COC2)C1 (atropisomer, axis not shown) [Compound 539]	< 100 nM
C[C@@H]1[C@H](N(C)c2nc(OC[C@@]34CCCN3C[C@H](F)C4)nc3c(F)c(-c4ccc(F)c5sc(N)c(C#N)c45)c(C(F)(F)F)cc23)CCN1C(=O)C(C)(F)F [Compound 459]	100 to 1000 nM
CCN(c1nc(OC[C@@]23CCCN2C[C@H](F)C3)nc2c(F)c(-c3ccc(F)c4sc(N)c(C#N)c34)c(C(F)(F)F)cc12)[C@H]1C[C@@H](C)N(C(=O)N(C)C)C1 (atropisomer, axis not shown) [Compound 558]	100 to 1000 nM

# context switch: different molecule, same IC50
Noted for CC(=O)N1C[C@@H]2CC[C@H]1CN2c1nc(OC[C@@]23CCCN2C[C@H](F)C3)nc2c(F)c(-c3ccc(F)c4sc(N)c(C#N)c34)c(C(F)(F)F)cc12 [Compound 455] : its IC50 reads 100 to 1000 nM
